Items are presented alongside their recorded enrichment ratio.
B1: PhoQ; a variant is named by its letters at X, in order, P23837 (parent)
chain: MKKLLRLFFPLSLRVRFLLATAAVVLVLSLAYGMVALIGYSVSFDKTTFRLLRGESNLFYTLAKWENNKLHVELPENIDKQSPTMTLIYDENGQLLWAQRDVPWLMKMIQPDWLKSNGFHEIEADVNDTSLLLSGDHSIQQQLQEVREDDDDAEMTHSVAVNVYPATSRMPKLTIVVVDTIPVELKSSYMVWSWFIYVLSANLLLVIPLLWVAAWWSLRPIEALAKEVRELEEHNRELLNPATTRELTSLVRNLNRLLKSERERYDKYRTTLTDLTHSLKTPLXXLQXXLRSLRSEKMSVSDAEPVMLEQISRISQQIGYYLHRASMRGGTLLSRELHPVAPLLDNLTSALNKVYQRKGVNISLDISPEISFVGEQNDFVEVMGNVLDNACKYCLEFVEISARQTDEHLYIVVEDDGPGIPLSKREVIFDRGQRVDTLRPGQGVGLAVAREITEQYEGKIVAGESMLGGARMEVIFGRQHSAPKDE

- Variants of: B1
- Procedure summary: enrichment ratio after two sorts for PhoP signalling (ratio (wild type AVST 3.29)); higher = more functional
- Test context: with PhoP (E. coli)
The full ranking holds about 140,000 sequences; the median of “enrichment ratio after two sorts for PhoP signalling” is about 0, and the highest 2% start at about 11. What follows is part of a selection rich in the highest values, with near analogues and random picks from the rest.

// below: answered variants
Mut: NITL
enrichment ratio: ≤ 0.25
//
Mut: TAVV
enrichment ratio: 1.05
//
Mut: SICN
enrichment ratio: 20.7

Lab note: next variant to report on.
Ask: # enrichment ratio lookup, item `KAGI`
Reply: ≤ 0.25

Source listed as a collection of fitness landscapes (doi:10.1126/science.1257360).
